The measured values listed here are drawn from patent US20150337037A1.

# target.or.system: T1, cynomolgus monkey CCR6 (cynomolgus monkey (Macaca Fascicularis))
# T1 construct: whole, on cells; gene derived from a total RNA library; also called CCR6 cyno; cyno CCR6
# protocol.description: flow cytometry on cells expressing the target, IgG1 titration, anti-human Fc-PE
observable: EC50 (nM)
Numbers only here, please. The scale is nM.

Example results:
| binder | observable | measured.value |
| --- | --- | --- |
| MSM-R609 IgG1 (antibody, V domains shown, Fully human IgG1) VH: EVQLLESGGGLVQPGGSLRLSCAASGFTFTASYMSWVRQAPGKGLEWVSNISPKYGNTYYADSVKGRFTISRDNSKNTLYLQMNSLRAEDTAVYYCARSIRSAKYSYYGIDYWGQGTLVTVSS VL: EIVLTQSPGTLSLSPGERATLSCRASQSVSSSYLAWYQQKPGQAPRLLIYGASSRATGIPDRFSGSGSGTDFTLTISRLEPEDFAVYYCQQSASAPVTFGQGTKVEIKR | EC50 | 1.6 |
| MSM-R615 IgG1 (antibody, V domains shown, Fully human IgG1) VH: EVQLLESGGGLVQPGGSLRLSCAASGFTFSSYYMHWVRQTPGKGLEWVSIISPWSSSTYYADSVKGRFTISRDNSKNTLYLQMNSLRAEDTAVYYCARSSYSWGESYKRAIDYWGQGTLVTVSS VL: EIVLTQSPGTLSLSHGERATLSCRASQSVSSSYLAWYQQKPGQAPRLLIYGASSRATGIPDRFSGSGSGTDFTLTISRLEPEDFAVYYCQQSYYSPVTFGQGTKVEIKR | EC50 | 2.5 |
| MSM-R614 IgG1 (antibody, V domains shown, Fully human IgG1) VH: EVQLLESGGGLVQPGGSLRLSCPASGFTFTRSAMSWVRQAPGKGLEWVSYINSSGGGTYYADSVKGRFTISRDNSKNTLYLQMNSLRAEDTAVYYCARARFIWGFDYWGQGTLVTVSS VL: EIVLTQSPGTLSLSPGERATLSCRASQSVSSSYLAWYQQKPGQAPRLLIYGASSRATGIPDRFSGSGSGTDFTLTISRLEPEDFAVYYCQQWYWAPVTFGQGTKVEIKR | EC50 | 3 |

Switching to the query record.
Q. Entry under review: MSM-R607 IgG1 (antibody, V domains shown, Fully human IgG1) VH: EVQLLESGGGLVQPGGSLRLSCAASGFTFSSYYMHWVRQAPGKGLEWVSLIAPANSDTYYADSVKGRFTISRDNSKNTLYLQMNSLRAEDTAVYYCARSSYTRHSSKRGMDYWGQGTLVTVSS VL: EIVLTQSPGTLSLSPGERATLSCRASQSVSSSYLAWYQQKPGQAPRLLIYGASSRATGIPDRFSGSGSGTDFTLTISRLEPEDFAVYYCQQAAYSPITFGQGTKVEIKR . Reported EC50?
A. 2
